# System under test: Cytochrome P450 1A2 (Homo sapiens)
# Run description: Cytochrome panel assay with activity outcomes
# Stated conditions: recombinant CYP, pro-luciferin dealkylation, luminescence, p450-cyp1a2; series mostly up to 57.1 µM
About 5,700 (36%) of roughly 16,000 compounds were called active. Roughly 24% stayed inconclusive and do not appear here. The call rests on the fitted dose curve; in most records, active means well fitted curve in the direction sought with a large enough effect; inconclusive means small, poorly fitted or top-dose-only effect, or effect the other way; inactive means no such curve, though single readings can be large or run the other way. This is one part of the list.
Outcomes you can answer with include only these: Yes (active), No (inactive)

Answered examples (3):
compound=CC1(C)C(=O)N(CCN2CCC(C(=O)c3ccc(F)cc3)CC2)c2ccccc21 system_under_test="Cytochrome P450 1A2 (Homo sapiens)" class_assignment=No
compound=CCOC(=O)C(CC)(CC)C(=O)/C=C/c1ccc(Br)cc1 system_under_test="Cytochrome P450 1A2 (Homo sapiens)" class_assignment=Yes
compound=Cc1c(-n2cc(C(=O)c3cc(Cl)ccc3O)cc(C#N)c2=O)c(=O)n(-c2ccccc2)n1C system_under_test="Cytochrome P450 1A2 (Homo sapiens)" class_assignment=No

Query: Given O=S(=O)(c1ccccc1S(=O)(=O)N1CCCCC1)N1CCCCC1 , state the outcome it received in this test.
Reply: No

Query: Record lookup: outcome of this test for CC(C)Oc1cccc(C(=O)NC(=S)N2CCN(c3ccc(C(F)(F)F)cc3[N+](=O)[O-])CC2)c1 ?
Reply: No

Query: State the result this test recorded for CC(=O)c1cc(C#N)c(Oc2ccc(F)cc2)nc1C .
Reply: Yes
